Entry source: paper PMC9842712

assay system: T1, hnRNPDL-2 (soluble) (human, UniProt O14979-2 1-301)
T1 sequence: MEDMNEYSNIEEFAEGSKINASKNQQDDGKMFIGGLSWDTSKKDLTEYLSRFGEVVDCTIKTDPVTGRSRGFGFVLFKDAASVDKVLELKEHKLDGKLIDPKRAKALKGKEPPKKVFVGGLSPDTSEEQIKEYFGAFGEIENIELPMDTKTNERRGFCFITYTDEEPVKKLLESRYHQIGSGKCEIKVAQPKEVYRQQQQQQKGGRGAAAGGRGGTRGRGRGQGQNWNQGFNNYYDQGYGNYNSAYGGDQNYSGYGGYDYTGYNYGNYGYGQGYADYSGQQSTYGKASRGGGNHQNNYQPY
assay: EMSA; apparent Kd, Hill fit; 50 nM probe; EMSA: 10 ul, 50 nM probe, 24 h at RT, 8% polyacrylamide gel, buffer not stated; fibril binding: 24 h at RT, spin 16,000 x g at 4 C, pellet wash 50 mM HEPES pH 7.5, 150 mM NaCl
stated conditions: protein: recombinant; tags: N-terminal His-SUMO (expression construct); label: fluorescein, printed at 5' side (F-); FITC in peer review file; single strand, 7-mer
observation type: Kd (µM)

[[record]]
binder = "GACUAGC (ssRNA) [F-RNA (F-GACUAGC)]"
uom = "µM"
value_reported = 22.8

